Assay: Single oral dose human plasma pharmacokinetics of D, DA and DOH after Cogni.Q
Type: in vivo
Conditions: both sexes, human, plasma, oral, human subjects; read-out: plasma C max, average value
readout_name: Cmax
Remember to put the unit after the number in your answer.

Asked: Report Cmax for `CC1(C)Oc2cc3oc(=O)ccc3cc2C[C@@H]1O` please.
Given back: 2500 nM

---

Experiment: Single oral dose human plasma pharmacokinetics of D, DA and DOH after Cogni.Q
Type: in vivo
Conditions: human, plasma, oral, 4 Cogni.Q vegicaps, subject S5 (161 lb); read-out: Terminal t1/2, h (converted)
Overview of recorded half-life for various compounds
Express it in h; write the number only.

As a guide, the following entries are already answered.
>>> numeric_result("C/C=C(/C)C(=O)O[C@H]1Cc2cc3ccc(=O)oc3cc2OC1(C)C [DA, decursinol angelate]")
12
>>> numeric_result("CC1(C)Oc2cc3oc(=O)ccc3cc2C[C@@H]1O")
7.7

Let's switch to this compound now.
Asked: For the compound shown here, `CC(C)=CC(=O)O[C@H]1Cc2cc3ccc(=O)oc3cc2OC1(C)C` , give the reported half-life.
Given back: 22.8

---

Experiment: Single oral dose human plasma pharmacokinetics of D, DA and DOH after Cogni.Q
Format: in vivo
Settings: human, plasma, oral, 4 Cogni.Q vegicaps, subject S8 (160 lb); read-out: Tmax
readout_name: Tmax (h)
Only the number, expressed in h, is required.

Consider the reported Tmax for these compounds:
>>> numeric_result("C/C=C(/C)C(=O)O[C@H]1Cc2cc3ccc(=O)oc3cc2OC1(C)C [DA, decursinol angelate]")
3
>>> numeric_result("CC(C)=CC(=O)O[C@H]1Cc2cc3ccc(=O)oc3cc2OC1(C)C")
3

Asked: # query: Tmax of entry `CC1(C)Oc2cc3oc(=O)ccc3cc2C[C@@H]1O`
Given back: 3

---

Test: Single oral dose human plasma pharmacokinetics of D, DA and DOH after Cogni.Q
Type: in vivo
Conditions: human, plasma, oral, 4 Cogni.Q vegicaps, subject S16 (175 lb); read-out: Tmax
Reported Tmax values for a set of compounds

>>> result("CC(C)=CC(=O)O[C@H]1Cc2cc3ccc(=O)oc3cc2OC1(C)C")
"3 h"
>>> result("C/C=C(/C)C(=O)O[C@H]1Cc2cc3ccc(=O)oc3cc2OC1(C)C [DA, decursinol angelate]")
"3 h"

Asked: Can you share its Tmax? I mean this compound: `CC1(C)Oc2cc3oc(=O)ccc3cc2C[C@@H]1O`
Given back: 2 h

---

Overview of recorded half-life for various molecules
Assay: Single oral dose human plasma pharmacokinetics of D, DA and DOH after Cogni.Q
Type: in vivo
Settings: human, plasma, oral, 4 Cogni.Q vegicaps, subject S8 (160 lb); read-out: Terminal t1/2, h (converted)
Experimental: Ten healthy male and 10 female subjects were recruited by public announcement in Amarillo, TX, from January 2013 to April 2013 (see Fig. 1 CONSORT diagram). […] Plasma was prepared by centrifuging the heparinized blood at 1000 g for 15 minutes at room temperature. Urine samples (40mL) were collected within time spans of 0–4, 4–8, 8–12 and 12–24 hours (total volume of urine was recorded). […]

// known answers, use as guide
>>> result("CC1(C)Oc2cc3oc(=O)ccc3cc2C[C@@H]1O")
"5.5 h"
>>> result("C/C=C(/C)C(=O)O[C@H]1Cc2cc3ccc(=O)oc3cc2OC1(C)C [DA, decursinol angelate]")
"16.7 h"

# context switch: different molecule, same half-life
Asked: Look up half-life: `CC(C)=CC(=O)O[C@H]1Cc2cc3ccc(=O)oc3cc2OC1(C)C`
Given back: 9.9 h

---

Assay: Single oral dose human plasma pharmacokinetics of D, DA and DOH after Cogni.Q
Format: in vivo
Settings: male, human, plasma, po, Men N = 10; single oral dose Cogni.Q; plasma; read-out: Tmax, h, Mean (SD)
Method: Ten healthy male and 10 female subjects were recruited by public announcement in Amarillo, TX, from January 2013 to April 2013 (see Fig. 1 CONSORT diagram). […] Plasma was prepared by centrifuging the heparinized blood at 1000 g for 15 minutes at room temperature. Urine samples (40mL) were collected within time spans of 0–4, 4–8, 8–12 and 12–24 hours (total volume of urine was recorded). […]
readout_name: Tmax
Kindly write the number and append the unit.

Answered examples (2):
>>> result("CC1(C)Oc2cc3oc(=O)ccc3cc2C[C@@H]1O")
"2.4 h"
>>> result("CC(C)=CC(=O)O[C@H]1Cc2cc3ccc(=O)oc3cc2OC1(C)C")
"1.7 h"

With those in mind, consider the next compound.
Asked: Requested field: Tmax. Item: C/C=C(/C)C(=O)O[C@H]1Cc2cc3ccc(=O)oc3cc2OC1(C)C [DA, decursinol angelate]
Given back: 2.1 h

---

Assay: Single oral dose human plasma pharmacokinetics of D, DA and DOH after Cogni.Q
Type: in vivo
Settings: female, human, plasma, po, Women; outlier subjects excluded; single oral dose Cogni.Q; plasma; read-out: T1/2, h, terminal Mean (SD) (converted)
readout_name: half-life (h)
Answer with a number only, understood to be in h.

>>> numeric_result("C/C=C(/C)C(=O)O[C@H]1Cc2cc3ccc(=O)oc3cc2OC1(C)C [DA, decursinol angelate]")
23.7
>>> numeric_result("CC1(C)Oc2cc3oc(=O)ccc3cc2C[C@@H]1O [DOH, decursinol]")
8.3

Asked: Would you mind telling me what half-life value was observed for CC(C)=CC(=O)O[C@H]1Cc2cc3ccc(=O)oc3cc2OC1(C)C [D, decursin] ?
Given back: 17

---

Assay: Single oral dose human plasma pharmacokinetics of D, DA and DOH after Cogni.Q
Assay type: in vivo
Conditions: female, human, plasma, po, Women N = 10; single oral dose Cogni.Q; plasma; read-out: Tmax, h, Mean (SD)
readout_name: Tmax (h)
Quick note: give the figure in h, leave out the unit.

The cases that follow already have their Tmax on record.
>>> numeric_result("CC1(C)Oc2cc3oc(=O)ccc3cc2C[C@@H]1O [DOH, decursinol]")
4.1
>>> numeric_result("CC(C)=CC(=O)O[C@H]1Cc2cc3ccc(=O)oc3cc2OC1(C)C [D, decursin]")
2.4

Attention now shifts to the item below.
Asked: Could you tell me which Tmax is on file for C/C=C(/C)C(=O)O[C@H]1Cc2cc3ccc(=O)oc3cc2OC1(C)C [DA, decursinol angelate] ?
Given back: 2.7

---

Assay: Single oral dose human plasma pharmacokinetics of D, DA and DOH after Cogni.Q
Format: in vivo
Settings: female, human, plasma, po, Women N = 10; single oral dose Cogni.Q; plasma; read-out: AUC0–48h, h.nmol/L Mean (SD)
readout_name: AUC(0-t) (nmol·h/L)
Number only, in nmol·h/L; omit the unit.

Asked: Given `CC(C)=CC(=O)O[C@H]1Cc2cc3ccc(=O)oc3cc2OC1(C)C` , state its recorded AUC(0-t).
Given back: 45.7

Asked: // AUC(0-t) lookup, key: `CC1(C)Oc2cc3oc(=O)ccc3cc2C[C@@H]1O`
Given back: 32700

Asked: Requested field: AUC(0-t). Item: C/C=C(/C)C(=O)O[C@H]1Cc2cc3ccc(=O)oc3cc2OC1(C)C [DA, decursinol angelate]
Given back: 344

---

Test: Single oral dose human plasma pharmacokinetics of D, DA and DOH after Cogni.Q
Type: in vivo
Conditions: human, plasma, oral, 4 Cogni.Q vegicaps, subject S13 (192 lb); read-out: Tmax
Listed here: items and their measured Tmax.
Please reply with the bare figure in h and do not write the unit itself.

Below, each entry is followed by its recorded Tmax result.
>>> numeric_result("CC1(C)Oc2cc3oc(=O)ccc3cc2C[C@@H]1O [DOH, decursinol]")
2
>>> numeric_result("CC(C)=CC(=O)O[C@H]1Cc2cc3ccc(=O)oc3cc2OC1(C)C [D, decursin]")
0.5

Note: attention shifts to another entry.
Asked: Give the measured Tmax of C/C=C(/C)C(=O)O[C@H]1Cc2cc3ccc(=O)oc3cc2OC1(C)C [DA, decursinol angelate] .
Given back: 1

---

Reported Cmax values follow for various compounds
Test: Single oral dose human plasma pharmacokinetics of D, DA and DOH after Cogni.Q
Format: in vivo
Settings: human, plasma, oral, 4 Cogni.Q vegicaps, subject S14 (200 lb); read-out: Cmax
Experimental: Ten healthy male and 10 female subjects were recruited by public announcement in Amarillo, TX, from January 2013 to April 2013 (see Fig. 1 CONSORT diagram). […] Plasma was prepared by centrifuging the heparinized blood at 1000 g for 15 minutes at room temperature. Urine samples (40mL) were collected within time spans of 0–4, 4–8, 8–12 and 12–24 hours (total volume of urine was recorded). […]
State just the number; it will be interpreted in nM.

>>> numeric_result("CC1(C)Oc2cc3oc(=O)ccc3cc2C[C@@H]1O [DOH, decursinol]")
3340

Asked: Fill in the blank: the reported Cmax of C/C=C(/C)C(=O)O[C@H]1Cc2cc3ccc(=O)oc3cc2OC1(C)C [DA, decursinol angelate] is ____.
Given back: 24.4

Asked: Which Cmax reading was recorded for the compound CC(C)=CC(=O)O[C@H]1Cc2cc3ccc(=O)oc3cc2OC1(C)C [D, decursin] ?
Given back: 8.6

All values here come from paper PMC4335020.
